- Test system: Vero E6 infected with SARS-CoV-2
- testProtocol: inhibition of SARS-CoV-2 cytopathic effect; higher = more antiviral protection, active = above 15
- conditions: 833.33 nM; 48 h
Give inhibition of SARS-CoV-2 cytopathic effect for every item shown.
Numbers only, in %.

Some solved entries appear below for comparison.
[[record]]
compound = "CCCC[C@H](NC(C)=O)C(=O)N[C@H]1CC(=O)NCCCC[C@@H](C(=O)O)NC(=O)[C@H](Cc2c[nH]c3ccccc23)NC(=O)[C@H](CCCNC(=N)N)NC(=O)[C@@H](Cc2ccccc2)NC(=O)[C@H](Cc2c[nH]cn2)NC1=O [bremelanotide]"
observed = -2.33

[[record]]
compound = "CCc1nc2ccc(Cl)cn2c1C(=O)NCc1ccc(N2CCC(c3ccc(OC(F)(F)F)cc3)CC2)cc1"
observed = 0.62

[[record]]
compound = "CCCCCCC[N+](CC)(CC)CCCCc1ccc(Cl)cc1"
observed = 1.2

[[record]]
compound = "C=C(C)[C@@H]1CC=C(CO)CC1"
observed = 2.39

[[record]]
compound = "N[C@H](C(=O)O)c1cc(O)no1"
observed = -0.13


State the recorded inhibition of SARS-CoV-2 cytopathic effect for every item in the following list.
1. NS(=O)(=O)c1cc(C(=O)O)cc(N2CCCC2)c1Oc1ccccc1 [piretanide]
2. COc1ccc(S(=O)(=O)N(C(C)=O)c2ccccc2/C=C/c2cc[n+]([O-])cc2)cc1
3. O=C(Nc1ccncc1)C(=O)c1cn(Cc2ccc(Cl)cc2)c2ccccc12
4. CCCN1CC(NS(=O)(=O)N(CC)CC)CC2Cc3c(O)cccc3CC21 (centres undefined) [quinagolide]
5. Oc1ccc(OCc2ccccc2)cc1
6. O=C(CCCCCN1C(=O)c2cccc3cccc(c23)C1=O)NO

[out]
[-2.57, -2.71, 0.68, -13.8, -0.61, -13.6]

----------
Give inhibition of SARS-CoV-2 cytopathic effect for every item shown.
- Test system: Vero E6 infected with SARS-CoV-2
- testProtocol: inhibition of SARS-CoV-2 cytopathic effect; higher = more antiviral protection, active = above 15
- conditions: 1 nM; 48 h
One number for each entry, in %.

Some solved entries appear below for comparison.
[[record]]
compound = "CCOc1ccn(-c2ccc(F)cc2)c(=O)c1C(=O)Nc1ccc(Oc2ccnc(N)c2Cl)c(F)c1"
testtarget = "Vero E6 infected with SARS-CoV-2"
unitssymbol = "%"
observed = 2.67

[[record]]
compound = "N#Cc1c(-c2ccccc2)cc(-c2cc(Br)ccc2O)[nH]c1=O"
testtarget = "Vero E6 infected with SARS-CoV-2"
unitssymbol = "%"
observed = 0.98

[[record]]
compound = "C[C@]12CC[C@@H]3c4ccc(OC(=O)c5ccccc5)cc4CC[C@H]3[C@@H]1CC[C@@H]2O [estradiol-benzoate]"
testtarget = "Vero E6 infected with SARS-CoV-2"
unitssymbol = "%"
observed = -5.16

[[record]]
compound = "COc1ccc2c3c1O[C@H]1C[C@@H](O)C=C[C@@]31CCN(C)C2"
testtarget = "Vero E6 infected with SARS-CoV-2"
unitssymbol = "%"
observed = 0.63

[[record]]
compound = "N[C@@H](C[C@@H](F)C(=O)O)C(=O)O"
testtarget = "Vero E6 infected with SARS-CoV-2"
unitssymbol = "%"
observed = 0.4


State the recorded inhibition of SARS-CoV-2 cytopathic effect for every item in the following list.
1. Cn1ccnc1S
2. CC[C@@]1(O)C(=O)OCc2c1cc1n(c2=O)Cc2c-1nc1cc(F)c(C)c3c1c2[C@@H](N)CC3 [exatecan-mesylate]
3. CC(=O)N1N=C(c2ccc(N)cc2)c2cc3c(cc2C[C@H]1C)OCO3
4. CCSc1ccc2c(c1)N(CCCN1CCN(C)CC1)c1ccccc1S2
5. CC1(C)CC(=O)c2c(C(F)(F)F)nn(-c3ccc(C(N)=O)c(N[C@H]4CC[C@H](O)CC4)c3)c2C1
6. CCC1(C2=NCCN2)Cc2ccccc2O1 (configuration not stated)
7. C[C@@H]1NC(=O)[C@@H](N)CNC(=O)[C@H](C2CCNC(=N)N2)NC(=O)/C(=C/NC(N)=O)NC(=O)[C@H](CNC(=O)CC(N)CCCN)NC1=O.N=C1NCC[C@H]([C@@H]2NC(=O)/C(=C/NC(N)=O)NC(=O)[C@H](CNC(=O)C[C@@H](N)CCCN)NC(=O)[C@H](CO)NC(=O)[C@@H](N)CNC2=O)N1

[out]
[0.07, -2.4, -0.4, -3.78, 1.9, -0.76, 0.56]

State the recorded inhibition of SARS-CoV-2 cytopathic effect for every item in the following list.
1. CC(C)(S)C(N)C(=O)O (stereo in doubt) [penicillamine-(racemic)]
2. COc1c(C)c2c(c(O)c1C/C=C(\C)CCC(=O)O)C(=O)OC2
3. CC(C)c1ccc(NC(=O)c2cccs2)c(-c2nc3ccccc3[nH]c2=O)c1

[out]
1. -0.3
2. -0.65
3. -1.18

State the recorded inhibition of SARS-CoV-2 cytopathic effect for every item in the following list.
1. CC(C)(C)Nc1nc(Nc2ccc(C(N)=O)cc2)cc(N)c1C#N
2. COc1cc2ncnc(Nc3cccc(Br)c3)c2cc1OC

[out]
1. -1.51
2. -2.89

Data origin, for the record: the supplement of paper PMC13380429
